HLA binding, relative HLA binding affinity by entry:
System: HLA-DRB1*07
Assay type: binding, human
Design: reference not given here
assay conditions: 24–72 h at 37°C
result type: HLA binding, relative HLA binding affinity

input sequence | measurement
AAKIQGMNVEVVVATGYTDR [BPSL2522_P13] | 11
PAGKQKLDELAAKIQGMNVE [BPSL2522_P12] | 333
NQNPQITASVVGYTDSTGSA [BPSL0999_P14] | 30.2
VVVATGYTDRIGSDKYNDRL [BPSL2522_P14] | >336
KDFTFVCPTEIVEFAKLAKQ [BPSL2096_P6] | 0.3
RGVAANRLSAQGMGASNPIA [BPSL0999_P18] | 11

====

System: PBMC from healthy, seropositive donors
Type: cell-based, human
% Responders by entry:

input sequence | % Responders / %
ETGQLVTRLCWKSQLRSDEV [BPSS0530_P16] | 81.4
LLLRQAIAEYRMRLANLDAF [BPSS0530_P25] | 81.4
IVEFAKLAKQFEERDAVLLG [BPSL2096_P7] | 85.3
VPLTAPTANDTPLADDSVVR [BPSS1599_P33] | 83.3
AALPDALAFARACAMRFGRL [BPSS1599_P26] | 89.6
VLPGVDEELADRELGYDHDD [BPSS0530_P29] | 93.0
SDDPLPPPLETELAQAGDIA [BPSS0530_P9] | 90.7
APGGWRLERYECTPGTAHYA [BPSS1599_P28] | 87.5
MSSLPVGPVAWSDGMLIETQ [BPSS0530_P1] | 93.0
GRQVYEATLCAIFSEAKDRF [BPSS1525_P12] | 84.6
WSDGMLIETQHFQQLERHLA [BPSS0530_P2] | 90.7
KGELIDQLGVRDKEAGVALR [BPSL2096_P12] | 97.1
GAAQMTAAIAGGALQATTSL [BPSS1531_P21] | 97.1
LRIVGDFPDLRFEAWGLRDGKVA [BPSS0530_P44] | 90.7

====

System: PBMC from healthy, seropositive donors
Type: cell-based, human
Each record gets a class by Median SFC/10^6 PBMCs (IFN-g): category 1: < 200; category 2: ≥ 200 and < 300; category 3: ≥ 300

input sequence | system | label value
SAQSVPASRQAVNDNWVNGT [BPSL2522_P3] | PBMC from healthy, seropositive donors | category 2
AVRDHAFMPNGDWVGSREEA [BPSS1599_P12] | PBMC from healthy, seropositive donors | category 1
NQNPQITASVVGYTDSTGSA [BPSL0999_P14] | PBMC from healthy, seropositive donors | category 3
PLLNDLATTLNQNPQITASV [BPSL0999_P13] | PBMC from healthy, seropositive donors | category 3
VVVATGYTDRIGSDKYNDRL [BPSL2522_P14] | PBMC from healthy, seropositive donors | category 2
WKSQLRSDEVALPIARVAGR [BPSS0530_P17] | PBMC from healthy, seropositive donors | category 2
RVRAELAARQARSGPVAPPW [BPSS1599_P24] | PBMC from healthy, seropositive donors | category 1
KLTMLAHDAMMSAAAQDRSI [BPSS1531_P19] | PBMC from healthy, seropositive donors | category 2
MSSLPVGPVAWSDGMLIETQ [BPSS0530_P1] | PBMC from healthy, seropositive donors | category 2
ETGQLVTRLCWKSQLRSDEV [BPSS0530_P16] | PBMC from healthy, seropositive donors | category 2
LRVERIAYQNNQWTLEGVLY [BPSS1599_P42] | PBMC from healthy, seropositive donors | category 1
LGAMVSRAIALEGAFYNGRR [BPSS1599_P8] | PBMC from healthy, seropositive donors | category 1
VGTQEVQKTTVPAQ [BPSL2522_P22] | PBMC from healthy, seropositive donors | category 2
TAACVVLGGAFAYWHHRAKV [BPSS1599_P21] | PBMC from healthy, seropositive donors | category 1
IQHVSVNNLNVGRSPEEILR [BPSL2096_P15] | PBMC from healthy, seropositive donors | category 3
FSKIGETLGQLFRHRAPDSA [BPSS1525_P5] | PBMC from healthy, seropositive donors | category 1
NVPSSVTFATDQYAITPAFT [BPSL0999_P11] | PBMC from healthy, seropositive donors | category 3
RGVAANRLSAQGMGASNPIA [BPSL0999_P18] | PBMC from healthy, seropositive donors | category 3
DTDGERATLDVPLTAPTAND [BPSS1599_P32] | PBMC from healthy, seropositive donors | category 1
SDDPLPPPLETELAQAGDIA [BPSS0530_P9] | PBMC from healthy, seropositive donors | category 2
HFQQLERHLAHQASLRLGQT [BPSS0530_P3] | PBMC from healthy, seropositive donors | category 2
ALPDGRWAYFAVRDHAFMPN [BPSS1599_P11] | PBMC from healthy, seropositive donors | category 1
TELAQAGDIACLALQAARTG [BPSS0530_P10] | PBMC from healthy, seropositive donors | category 2
NANLGGIAPPEFVRAIDVPG [BPSS1599_P40] | PBMC from healthy, seropositive donors | category 1
EKLRQLLPQQTKLGAVEQIQ [BPSS0530_P37] | PBMC from healthy, seropositive donors | category 2
TPLADDSVVRTQLLARLQWL [BPSS1599_P34] | PBMC from healthy, seropositive donors | category 1
IGSDKYNDRLSLRRAQAVKS [BPSL2522_P15] | PBMC from healthy, seropositive donors | category 2
QRFVGGLFWQSLSRRNELRA [BPSS1599_P2] | PBMC from healthy, seropositive donors | category 1
VGYTDSTGSAAHNQTLSQNR [BPSL0999_P15] | PBMC from healthy, seropositive donors | category 3
PVAPVAPAITSQKITYQADT [BPSL2522_P9] | PBMC from healthy, seropositive donors | category 3
GVALVAAAFVGASAVKAVAS [BPSS1532_P45] | PBMC from healthy, seropositive donors | category 1
VDKQWNLKKLIFAFSAAMPA [BPSS0530_P35] | PBMC from healthy, seropositive donors | category 2
ALPIARVAGRNASRTVSLDP [BPSS0530_P18] | PBMC from healthy, seropositive donors | category 2
ASPTWRAYRLNANLGGIAPP [BPSS1599_P39] | PBMC from healthy, seropositive donors | category 1
WWALRPVERRLSPRAALIAA [BPSS1599_P19] | PBMC from healthy, seropositive donors | category 1
LAGVQVVQSNGNYSVFLSGG [BPSL0280_P22] | PBMC from healthy, seropositive donors | category 3
EVPDLAVGLDAPGTPRRLTI [BPSS0530_P14] | PBMC from healthy, seropositive donors | category 2
APDRRVEVEVVGTQEVQKTT [BPSL2522_P21] | PBMC from healthy, seropositive donors | category 2
RLNALPNPPRQIPYYAQSTY [BPSS0530_P40] | PBMC from healthy, seropositive donors | category 2
MLRQALARVIETPVLPLRFE [BPSS0530_P32] | PBMC from healthy, seropositive donors | category 3
EFVRAIDVPGLRVERIAYQN [BPSS1599_P41] | PBMC from healthy, seropositive donors | category 1

====

System: PBMC from healthy, seropositive donors
Format: cell-based, human
result type: % Responders (%)

input sequence | result type | measurement
ECTPGTAHYAWARNGSNVRY [BPSS1599_P29] | % Responders | 97.9
NASRTVSLDPRFIPPLLDTR [BPSS0530_P19] | % Responders | 97.7
AGTVMNVGNQVSQAAGGIVV [BPSS1532_P54] | % Responders | 80.6
IFAFSAAMPAEKLRQLLPQQ [BPSS0530_P36] | % Responders | 95.3
RDLAVSKLSQLAGVQVVQSN [BPSL0280_P21] | % Responders | 93.1
GGWNVVIGEPELERQGFQNF [BPSS1599_P15] | % Responders | 87.5

====

Test system: PBMC from healthy, seropositive donors
Type: cell-based, human

input sequence | scale unit | % Responders
DLDQDGLGLGRLGLRHARGV [BPSS0530_P6] | % | 90.7
NQWTLEGVLYAK [BPSS1599_P43] | % | 81.3
DNATEAGRAQNRRVEIYLRA [BPSL0999_P20] | % | 93.6
FSKIGETLGQLFRHRAPDSA [BPSS1525_P5] | % | 89.7
NVPSSVTFATDQYAITPAFT [BPSL0999_P11] | % | 95.7
FETVTEASFPGKWKIIYFYP [BPSL2096_P4] | % | 88.2
WARNGSNVRYLLVVEPGATL [BPSS1599_P30] | % | 91.7
ELVGLLGRLSVLPGVDEELA [BPSS0530_P28] | % | 88.4
AIFSEAKDRFCMDPATRAGN [BPSS1525_P13] | % | 92.3
GPEMAFGDVELASRYRAVST [BPSS0530_P12] | % | 97.7
FAYWHHRAKVEAEEREAALE [BPSS1599_P22] | % | 95.8
KQTLAGSAMALRIVGDFPDL [BPSS0530_P43] | % | 100.0
LEGAFYNGRRQPAPNWLGAF [BPSS1599_P9] | % | 85.4
EAEEREAALERVRAELAARQ [BPSS1599_P23] | % | 91.7
DRGDQVHICIVDKQWNLKKL [BPSS0530_P34] | % | 86.0
ALPDGRWAYFAVRDHAFMPN [BPSS1599_P11] | % | 95.8
QGMGASNPIADNATEAGRAQ [BPSL0999_P19] | % | 97.9
AVRDHAFMPNGDWVGSREEA [BPSS1599_P12] | % | 97.9
CMDPATRAGNVRPAFIEALG [BPSS1525_P14] | % | 82.1
GVAAAGYANTRDGFAPGHLS [BPSS1599_P6] | % | 85.4
LQTSFEPLAMMLRQALARVI [BPSS0530_P31] | % | 97.7
SQKITYQADTLFDFDKAVLK [BPSL2522_P10] | % | 91.4
ATFIVDPDNTIQHVSVNNLN [BPSL2096_P14] | % | 91.2
PLLNDLATTLNQNPQITASV [BPSL0999_P13] | % | 91.5
TELAQAGDIACLALQAARTG [BPSS0530_P10] | % | 93.0
LASRYRAVSTEVPDLAVGLD [BPSS0530_P13] | % | 97.7
